Tested on: XF498
Test: NCI tumour cell line growth inhibition, 48 h
Calls of active or inactive are those of the source. Cut-off read from the data, not from the text of the source: active = GI50 up to about 1.1 µM and inactive = higher.

COMPOUND: CC1(O)C(C)(O)C2(C)O[Te]3(OC12C)OC1(C)C(C)(O)C(C)(O)C1(C)O3 (centres undefined)
GI50: > 100 µM (inactive)
//
COMPOUND: COC(=O)CC(NC(=O)OCc1ccccc1)C(C(=O)OCc1ccccc1)C1(C)OCCO1 (centres undefined)
GI50: 15.8 µM (inactive)
//
COMPOUND: CC(C)(C)NNc1c([N+](=O)[O-])cnn(-c2ccccc2)c1=O
GI50: 2.55 µM (inactive)
//
COMPOUND: O=C1/C(=C/c2ccccc2)CNC/C1=C\c1ccccc1
GI50: 2.32 µM (inactive)
//
COMPOUND: O=C1Nc2cc(F)ccc2C1=O
GI50: > 100 µM (inactive)
//
COMPOUND: CCOC(=O)CSc1nnc(CSc2nc(-c3ccccc3)c(-c3ccccc3)[nH]2)n1-c1ccccc1
GI50: 24.3 µM (inactive)
//
COMPOUND: O=C1NC(=O)C(=O)C(c2nc3ccccc3s2)C1=O
GI50: > 100 µM (inactive)
//
COMPOUND: CCC(CC)n1cc(C(=O)NC(=O)NCCCCCOC(=O)CCCCCCCCCCC(=O)OCCCCCNC(=O)NC(=O)c2cn(C(CC)CC)c(=O)[nH]c2=O)c(=O)[nH]c1=O
GI50: > 100 µM (inactive)
//
COMPOUND: O=C(c1ccncc1)n1nc(-c2ccccc2)c(/N=N/c2ccccc2[N+](=O)[O-])c1-c1ccccc1
GI50: 33.5 µM (inactive)
